test-summary: Thymol quantification in egg yolk (HS-SPME/GC-MS) during chronic dietary supplementation
Format: in vivo, Coturnix japonica
measurement-conditions: female, Japanese quail (Coturnix japonica), egg yolk, oral, 6.25 g/kg of feed; THY6, 6.25 g of thymol/kg of feed; 9 days of S; read-out: THY concentration in egg yolk
metric: concentration at 9 days of supplementation (ng/g)

{"mol-smiles": "Cc1ccc(C(C)C)c(O)c1", "result-number": 407}

----------
test-summary: Thymol quantification in egg yolk (HS-SPME/GC-MS) during chronic dietary supplementation
Assay type: in vivo, Coturnix japonica
measurement-conditions: female, Japanese quail (Coturnix japonica), egg yolk, oral, 4 g/kg of feed; THY4, 4 g of thymol/kg of feed; 16 days of S; read-out: THY concentration in egg yolk
metric: concentration at 16 days of supplementation (ng/g)

{"mol-smiles": "Cc1ccc(C(C)C)c(O)c1", "result-number": 295}

----------
test-summary: Thymol quantification in egg yolk (HS-SPME/GC-MS) during chronic dietary supplementation
Type: in vivo, Coturnix japonica
measurement-conditions: female, Japanese quail (Coturnix japonica), egg yolk, oral, 6.25 g/kg of feed; THY6, 6.25 g of thymol/kg of feed; 26 days of S; read-out: THY concentration in egg yolk
metric: concentration at 26 days of supplementation (ng/g)

{"compound": "Cc1ccc(C(C)C)c(O)c1 [THY, 2 isopropyl-5-methylphenol]", "quantity-unit": "ng/g", "result-number": 377}

----------
test-summary: Thymol quantification in egg yolk (HS-SPME/GC-MS) during chronic dietary supplementation
Type: in vivo, Coturnix japonica
measurement-conditions: female, Japanese quail (Coturnix japonica), egg yolk, oral, 4 g/kg of feed; THY4, 4 g of thymol/kg of feed; 9 days of S; read-out: THY concentration in egg yolk
metric: concentration at 9 days of supplementation (ng/g)

{"mol-smiles": "Cc1ccc(C(C)C)c(O)c1", "quantity-unit": "ng/g", "result-number": 297}
